All figures here come from patent US7002022B2.

result type: melting point

Below, 3 compounds whose answers are already recorded.
> print(dat)
                              smiles.string  recorded.measurement
1     N#Cc1cccc(NC(=O)c2ccccc2NCc2ccncc2)c1         157 to 160 °C
2  Cc1ccc(NCc2ccncc2)c(C(=O)Nc2ccc(Cl)cc2)c1                127 °C
3  O=C(Nc1cc2ccccc2cc1Br)c1ccccc1NCc1ccncc1         130 to 132 °C

Request: Specify melting point for O=C(Nc1cccc(C(F)(F)F)c1)c1ccccc1NCc1cccc2ncccc12 and stop.
Response: 176 to 178 °C

Request: Specify melting point for Cc1ccc(NC(=O)c2c(C)cccc2NCc2ccncc2)cc1 and stop.
Response: 162 to 163 °C

Request: Specify melting point for CC(C)OC(=O)c1ccc(NC(=O)c2ccccc2NCc2ccncc2)cc1 and stop.
Response: 70 °C

Request: Specify melting point for O=C(Nc1ccc(F)c(C(F)(F)F)c1)c1ccccc1NCc1ccncc1 and stop.
Response: 183 to 185 °C

Request: Specify melting point for Cc1cccc(NCc2ccncc2)c1C(=O)Nc1ccc(Cl)cc1 and stop.
Response: 190 °C

Request: Specify melting point for O=C(Nc1ccc(Cl)cc1)c1cc(Cl)ccc1NCc1ccncc1 and stop.
Response: 206 to 207 °C

Request: Specify melting point for O=C(Nc1ccccc1)c1ccccc1NCc1ccncc1 and stop.
Response: 160 to 161 °C

Request: Specify melting point for O=C(Nc1ccc(Cl)cc1)c1c(Cl)cccc1NCc1ccncc1 and stop.
Response: 183 to 185 °C

Request: Specify melting point for COc1cc(NC(=O)c2ccccc2NCc2ccncc2)cc2ccccc12 and stop.
Response: 152 to 154 °C

Request: Specify melting point for COc1cc(NC(=O)c2ccccc2NCc2ccncc2)cc(C(F)(F)F)c1 and stop.
Response: 134 to 136 °C

Request: Specify melting point for O=C(Nc1cccc(C(F)(F)F)c1)c1cc(F)c(F)cc1NCc1ccncc1 and stop.
Response: 175 to 178 °C

Request: Specify melting point for O=C(Nc1ccc(Cl)cc1)c1ccccc1NCc1ccnc2ccccc12 and stop.
Response: 178 to 209 °C

Request: Specify melting point for O=C(Nc1cccc(Cl)c1)c1ccccc1NCc1ccncc1 and stop.
Response: 131 to 133 °C
